TGI listing for selected compounds.
test system: MALME-3M melanoma; assay: NCI tumour cell line growth inhibition, 48 h
Measured Property: TGI

compound=COc1cc(OC)c2c(=O)cc(-c3ccccc3F)[nH]c2c1 measured_property=TGI recorded_measurement="> 100 µM"
compound="COC1CC2CCC(C)C(O)(O2)C(=O)C(=O)N2CCCCC2C(=O)OC(C(C)CC2CCC(O)C(OC)C2)CC(=O)C(C)C=C(C)C(O)C(OC)C(=O)C(C)CC(C)/C=C/C=C/C=C1C (stereo not drawn)" measured_property=TGI recorded_measurement="8.36 µM"
compound=C#CCOc1c(C(=O)OCC)c(=O)n(C)c2ccccc12 measured_property=TGI recorded_measurement="> 100 µM"
compound=CN(C)c1ccc(/C=c2/c3ccccc3n3nc4ccccc4c23)cc1 measured_property=TGI recorded_measurement="> 100 µM"
compound=Cc1cc2nc(CCC(=O)O)c(=O)[nH]c2cc1C measured_property=TGI recorded_measurement="> 100 µM"
compound=CC(=O)[CH-]C(=O)c1ccccc1.CC(=O)[CH-]C(=O)c1ccccc1.CC1(C)C2CCC1(C)C([O-])C2.CC1(C)C2CCC1(C)C([O-])C2.[Ti+4] measured_property=TGI recorded_measurement="30.2 µM"
compound="COC(=O)C1(c2cc3ccccc3n2S(=O)(=O)c2ccccc2)CC2C=CC1NC2 (stereo not drawn)" measured_property=TGI recorded_measurement="> 22.8 µM"
compound=CC1(C)O[C@@H]2[C@@H](COC(=O)c3ccccc3)C[C@@H](C#N)[C@@H]2O1 measured_property=TGI recorded_measurement="> 100 µM"

----------
system: CCRF-CEM leukemia; experiment: NCI tumour cell line growth inhibition, 48 h
Measured Property: TGI

compound=COC(=O)Nc1nc2cc(OC)c(OC)cc2c(=O)[nH]1 recorded_measurement="> 100 µM"
compound=COc1c(C)c2c(c(=O)c3c(C)cccc3n2C)c2c1c(=O)c1c(C)cccc1n2C recorded_measurement="> 10 µM"
compound=Cc1ccc(NN=NCCCCN)cc1 recorded_measurement="> 100 µM"
compound=Cc1nc(Nc2ccccc2Cl)sc1C(=O)CC(=O)C(=O)Nc1c(Cl)cccc1Cl recorded_measurement="> 100 µM"
compound=CS/C1=C(\c2ccc(C)cc2)N(c2ccccc2)C(=O)C(=O)N(c2ccccc2)/C(c2ccc(C)cc2)=C(/SC)SS1 recorded_measurement="> 100 µM"
compound=Cc1ccc2c(=O)c3cccc(CC(=O)O)c3[nH]c2c1C recorded_measurement="> 100 µM"
compound="CC(C)CC1C(=O)NCCC(NC(=O)C(N)Cc2ccc(O)cc2)C(=O)NC(Cc2ccccc2)C(=O)NC(Cc2ccccc2)NC1=O (configuration not stated)" recorded_measurement="> 100 µM"
compound=COc1cc(/C=C2\C[C@H]3[C@@H]4CC=C5C=C(N6CCCC6)CC[C@]5(C)[C@H]4CC[C@]3(C)C2=O)cc(OC)c1OC recorded_measurement="> 100 µM"
compound="CCOc1ccccc1NC(=O)CC1SC(=Nc2ccc([N+](=O)[O-])cc2)NC1=O (configuration not stated)" recorded_measurement="54.3 µM"
compound="N#CC(C(=O)/C(=N/N)C(C#N)c1ccccc1)c1ccccc1 (configuration not stated)" recorded_measurement="> 100 µM"
compound=CCOC(=O)C(/C=N\C(=S)Nc1ccc(Cl)c(Cl)c1)=C(/O)c1ccccc1 recorded_measurement="> 100 µM"
compound="CC1(CO)OC(n2cc(C(=O)NC(=O)OCc3ccccc3)c(=O)[nH]c2=O)CC1O (configuration not stated)" recorded_measurement="> 100 µM"
